Every entry's value here was drawn from PubChem BioAssay (Tox21).

tested_target: Nuclear receptor subfamily 1 group I member 3 (Homo sapiens) (UniProt Q14994)
Sequence (Q14994 whole entry, looked up): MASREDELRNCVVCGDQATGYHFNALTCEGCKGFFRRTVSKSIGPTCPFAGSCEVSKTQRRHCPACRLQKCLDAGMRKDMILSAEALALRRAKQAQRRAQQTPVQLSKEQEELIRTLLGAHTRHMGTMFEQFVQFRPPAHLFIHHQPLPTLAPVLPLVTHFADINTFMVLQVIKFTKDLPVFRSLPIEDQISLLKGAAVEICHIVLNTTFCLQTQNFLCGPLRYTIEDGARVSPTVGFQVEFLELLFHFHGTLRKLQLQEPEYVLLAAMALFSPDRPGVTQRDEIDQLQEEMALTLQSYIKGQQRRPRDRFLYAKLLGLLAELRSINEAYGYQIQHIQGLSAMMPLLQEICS
test_name: qHTS assay to identify small molecule antagonists of the constitutive androstane receptor (CAR) signaling pathway (AID 1224838);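 also: HepG2 cells stably expressing hCAR with CYP2B6 luciferase reporter stimulated by CITCO; potency is read from the fitted curve at half-maximal effect; nearly all actives have a fitted effect of over 40% in size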
run_parameters: HepG2-CYP2B6-hCAR luciferase, CITCO-stimulated, 24 h; series mostly up to 92.4 µM
Records with an inconclusive call do not appear. Calls of active or inactive are those of the source. Calls follow the shape of the dose curve; as a rule, active = well fitted inhibition curve with a large enough effect in the repeat runs; inconclusive = weak or mixed curves, or effect the other way; inactive = no such curve, though single readings can be large or run the other way.
metric_name: Potency

CCOC(=O)CS : 56 µM (active)
NS(=O)(=O)c1cc(-c2nn[nH]n2)c(NCc2cccs2)cc1Cl : 23.7 µM (active)
CCCCNC(=S)NCCCC : 48.6 µM (active)
Cc1nc(-c2ccccn2)ncc1C(=O)Nn1cc(C)c2cc(F)ccc21 : 13.7 µM (active)

====

tested_target: Glucocorticoid receptor (Homo sapiens)
test_name: qHTS assay to identify small molecule agonists of the glucocorticoid receptor (GR) signaling pathway (AID 720691)
run_parameters: GR-bla HeLa, beta-lactamase reporter ratio, 18 h; series mostly up to 62.4 µM
Records with an inconclusive call do not appear. Active and inactive are the calls of the source. Calls come from the whole dose curve; as a rule, active = well fitted activation curve with a large enough effect in the signal ratio in the repeat runs (not every such curve was filed as active); inconclusive = weak or mixed curves, or effect the other way; inactive = no such curve, though single readings can be large or run the other way; the % refers to the signal ratio.
metric_name: outcome

CCC(=O)Nc1ccc(O)cc1 : inactive
COc1nc(C)nc(NC(=O)NS(=O)(=O)c2ccccc2OCCCl)n1 : inactive
CS(=O)(=O)c1ccc([C@@H](O)[C@@H](CF)NC(=O)C(Cl)Cl)cc1 : inactive
CCc1cc(Cl)c(OC)c(C(=O)NC[C@@H]2CCCN2CC)c1O : inactive
O=C(Cl)c1cccc([N+](=O)[O-])c1 : inactive
C=CCc1cc(OC)c(O)c(C(=O)NCCO)c1 : inactive
COc1ccc2nc(NC(=O)Nc3ccccc3)sc2c1 : inactive
COc1cc2c(cc1N)oc1ccccc12 : inactive
C=C(C)C(=O)OCCOP(=O)(O)O : inactive
OCCN1CCN(CCO)CC1 : inactive
CCOC(=O)NCCC[Si](OCC)(OCC)OCC : inactive
OC[C@H]1O[C@@H](O[C@H]2[C@H](O)[C@@H](O)[C@H](O)O[C@@H]2CO)[C@H](O)[C@@H](O)[C@H]1O : inactive

====

test_name: qHTS assay to identify small molecule agonists of the endoplasmic reticulum stress response signaling pathway - cell viability counter screen (AID 1159517);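 also: HeLa cells carrying an ER stress response element beta-lactamase reporter; nearly all actives have a fitted effect of over 50% in size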
run_parameters: ESRE-bla HeLa viability, CellTiter-Glo luminescence, 5 h; series mostly up to 61 µM
Results filed as inconclusive are left out. Calls of active or inactive are those of the source. Calls come from the whole dose curve.
metric_name: activity change, negative = cytotoxicity

OCC(CBr)(CBr)CBr : inactive
CCN(O)CC : inactive
CCCCNC(=S)NCCCC : inactive
CCCCCCCCCCCCCCCCOP(=O)([O-])OCC[N+](C)(C)C : inactive
NC1=NCC2c3ccccc3Cc3ccccc3N12 (stereo not drawn) : inactive
CC1=C(CC(=O)O)c2cc(F)ccc2/C1=C\c1ccc(S(C)(=O)=O)cc1 : inactive
NCCCN1CCN(CCCN)CC1 : inactive
O=Cc1ccc(O)c(O)c1O : inactive

====

tested_target: Androgen receptor (Homo sapiens)
test_name: qHTS assay to identify small molecule agonists of the androgen receptor (AR) signaling pathway using the MDA cell line (AID 743040; also: nearly all actives have a fitted effect of over 20% in size)
run_parameters: MDA-kb2 AR-luc cells, MMTV luciferase, 16 h; series mostly up to 70.3 µM
Calls of active or inactive are those of the source. Calls follow the shape of the dose curve; as a rule, active = well fitted activation curve with a large enough effect in the repeat runs; inconclusive = weak or mixed curves; inactive = flat fitted curve, though single readings scatter.
Possible outcomes: yes = active, no = inactive

C[C@@H]1CN(c2c(F)c(F)c3c(=O)c(C(=O)O)cn(C4CC4)c3c2F)C[C@H](C)N1 : yes
CCC(=O)c1ccc2c(c1)N(CCCN(C)C)c1ccccc1S2 : no
COC(=O)C(C)O (stereo unspecified) : no
OC[C@H]1O[C@@H](O[C@H]2[C@H](O)[C@@H](O)[C@H](O)O[C@@H]2CO)[C@H](O)[C@@H](O)[C@H]1O : no
CC1=C(CC(=O)O)c2cc(F)ccc2/C1=C\c1ccc(S(C)(=O)=O)cc1 : no
CC(=O)OC(C)OC(C)=O : no
COC(C)CCO (stereo unspecified) : no
Cc1cc2nc(N)sc2cc1C : no
OCCN(CCO)CCN(CCO)CCO : no
C[C@@H](N)C(=O)O : no
CC(C)(C)c1cccc(O)c1 : no
